- MEASUREMENT NOTES: Half life in BALB/cAnNCrl mouse plasma at 2 mg/kg, iv
- Format: ADME, organism-based
- Parameters: dose 2 mg/kg, route intravenous
READOUT LABEL: half-life
Put down the number, then write its unit next to it.

**Query** For the molecule Cn1c(=O)[nH]c2c(Oc3ccc(NC(=O)Nc4ccc(Cl)c(C(F)(F)F)c4)cc3)ccnc21 , what half-life is on record?
**Result** 4.72 h

====

- MEASUREMENT NOTES: Cmax in plasma of BRAF mutant expressing WM266.4 cells xenografted Crl:CD1-Foxn1nu mouse at 2 mg/kg, iv
- Assay type: ADME, organism-based
- Design: dose 2 mg/kg, route intravenous
Please respond with reported Cmax for every item in the list.
Give the value, in units of nM, as a plain number.

**Query** For the compound Cn1c(=O)[nH]c2nccc(Oc3ccc(NC(=O)Nc4ccc(Cl)c(C(F)(F)F)c4)cc3)c21 , what Cmax is on record?
**Result** 2450

**Query** For the compound O=C(Nc1ccc(Oc2ccnc3[nH]c(=O)[nH]c23)cc1)Nc1ccc(Cl)c(C(F)(F)F)c1 , what Cmax is on record?
**Result** 1060

====

- TESTED ON: Serine/threonine-protein kinase B-raf (Homo sapiens, UniProt P15056, V600E)
- Sequence (P15056 2-766 V600E limits assumed): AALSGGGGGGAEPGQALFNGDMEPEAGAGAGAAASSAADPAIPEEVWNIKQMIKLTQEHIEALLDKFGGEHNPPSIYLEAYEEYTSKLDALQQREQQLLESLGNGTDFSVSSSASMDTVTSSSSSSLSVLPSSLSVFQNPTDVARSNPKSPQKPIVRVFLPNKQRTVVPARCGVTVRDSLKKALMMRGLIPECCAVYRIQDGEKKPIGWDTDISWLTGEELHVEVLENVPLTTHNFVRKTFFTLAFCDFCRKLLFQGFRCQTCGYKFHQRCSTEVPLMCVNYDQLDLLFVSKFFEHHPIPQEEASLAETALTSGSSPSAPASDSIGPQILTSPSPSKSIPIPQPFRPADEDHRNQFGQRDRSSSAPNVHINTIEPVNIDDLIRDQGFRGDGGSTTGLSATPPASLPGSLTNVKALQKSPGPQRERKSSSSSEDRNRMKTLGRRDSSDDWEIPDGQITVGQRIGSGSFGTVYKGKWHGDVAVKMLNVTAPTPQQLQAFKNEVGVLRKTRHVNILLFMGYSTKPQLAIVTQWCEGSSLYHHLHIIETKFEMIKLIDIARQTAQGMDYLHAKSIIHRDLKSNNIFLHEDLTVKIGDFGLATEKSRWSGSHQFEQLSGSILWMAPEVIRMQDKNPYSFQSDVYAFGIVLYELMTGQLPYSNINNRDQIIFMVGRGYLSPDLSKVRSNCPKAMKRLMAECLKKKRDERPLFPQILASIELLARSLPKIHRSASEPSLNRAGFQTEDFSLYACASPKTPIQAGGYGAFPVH
Each record is given Criterion met if its reported IC50 is strictly below 10 µM. Records at or above 10 µM are given Criterion not met.

**Query** Please let me know if O=C(Nc1ccccc1)Nc1ccc(Oc2ccnc3[nH]c(=O)[nH]c23)cc1 shows IC50 below 10 µM.
**Result** Criterion not met

**Query** Please let me know if O=C(Nc1ccc(Oc2ccnc3[nH]c(=O)[nH]c23)cc1)c1ccc(Cl)c(C(F)(F)F)c1 shows IC50 below 10 µM.
**Result** Criterion not met

**Query** Please let me know if O=C(Nc1ccc(Oc2ccnc3[nH]c(=O)[nH]c23)cc1)Nc1cc(Cl)cc(C(F)(F)F)c1 shows IC50 below 10 µM.
**Result** Criterion met

**Query** Please let me know if O=C(Nc1ccc(Oc2ccnc3[nH]c(=O)[nH]c23)cc1)Nc1cccc(F)c1 shows IC50 below 10 µM.
**Result** Criterion met

**Query** Please let me know if O=C(Nc1ccc(Oc2ccnc3[nH]c(=O)[nH]c23)cc1)c1cccc(OC(F)(F)F)c1 shows IC50 below 10 µM.
**Result** Criterion not met

**Query** Please let me know if O=C(Nc1ccc(Oc2ccnc3[nH]c(=O)[nH]c23)cc1)c1cc(F)cc(N2CCOCC2)c1 shows IC50 below 10 µM.
**Result** Criterion not met

**Query** Please let me know if Cn1c(=O)n(C)c2c(Oc3ccc(NC(=O)Nc4ccc(Cl)c(C(F)(F)F)c4)cc3)ccnc21 shows IC50 below 10 µM.
**Result** Criterion met

**Query** Please let me know if O=C(Nc1ccc(Oc2ccnc3[nH]c(=O)[nH]c23)cc1)c1cccc(Br)c1 shows IC50 below 10 µM.
**Result** Criterion not met

**Query** Please let me know if O=C(Cc1ccccc1)Nc1ccc(Oc2ccnc3[nH]c(=O)[nH]c23)cc1 shows IC50 below 10 µM.
**Result** Criterion not met

====

- MEASUREMENT NOTES: AUC in tumor of BRAF mutant expressing WM266.4 cells xenografted Crl:CD1-Foxn1nu mouse at 2 mg/kg, iv
- Assay type: ADME, organism-based, Neoplasm
- Set-up: dose 2 mg/kg, route intravenous
Please respond with reported AUC for every item in the list.
Give the value, in units of µM·h, as a plain number.

**Query** For the compound O=C(Nc1ccc(Oc2ccnc3[nH]c(=O)[nH]c23)cc1)Nc1ccc(Cl)c(C(F)(F)F)c1 , what AUC is on record?
**Result** 0.468

**Query** For the compound Cn1c(=O)[nH]c2nccc(Oc3ccc(NC(=O)Nc4ccc(Cl)c(C(F)(F)F)c4)cc3)c21 , what AUC is on record?
**Result** 4.5

====

- MEASUREMENT NOTES: Half life in tumor of BRAF mutant expressing WM266.4 cells xenografted Crl:CD1-Foxn1nu mouse at 2 mg/kg, iv
- Assay type: ADME, organism-based, Neoplasm
- Design: dose 2 mg/kg, route intravenous
READOUT LABEL: half-life (h)
Give the value, in units of h, as a plain number.

**Query** For the molecule O=C(Nc1ccc(Oc2ccnc3[nH]c(=O)[nH]c23)cc1)Nc1ccc(Cl)c(C(F)(F)F)c1 , what half-life is on record?
**Result** 1.24

**Query** For the molecule Cn1c(=O)[nH]c2nccc(Oc3ccc(NC(=O)Nc4ccc(Cl)c(C(F)(F)F)c4)cc3)c21 , what half-life is on record?
**Result** 9.72

====

- MEASUREMENT NOTES: Cmax in BALB/cAnNCrl mouse muscle at 2 mg/kg, iv
- Type: ADME, organism-based, Muscle tissue
- Set-up: dose 2 mg/kg, route intravenous
READOUT LABEL: Cmax
Put down the number, then write its unit next to it.

**Query** For the compound Cn1c(=O)[nH]c2c(Oc3ccc(NC(=O)Nc4ccc(Cl)c(C(F)(F)F)c4)cc3)ccnc21 , what Cmax is on record?
**Result** 8.08 µM

====

- MEASUREMENT NOTES: AUC in BALB/cAnNCrl mouse plasma at 2 mg/kg, iv
- Assay type: ADME, organism-based
- Design: dose 2 mg/kg, route intravenous
READOUT LABEL: AUC (µM·h)
Give the value, in units of µM·h, as a plain number.

**Query** For the compound Cn1c(=O)[nH]c2c(Oc3ccc(NC(=O)Nc4ccc(Cl)c(C(F)(F)F)c4)cc3)ccnc21 , what AUC is on record?
**Result** 16.4

====

Please respond with reported IC50 for every item in the list.
- TESTED ON: Serine/threonine-protein kinase B-raf (Homo sapiens, UniProt P15056, V600E)
Give the value, in units of nM, as a plain number.

**Query** For the compound Cn1c(=O)[nH]c2c(Oc3ccc(NC(=O)Nc4cc(C(F)(F)F)ccc4F)cc3)ccnc21 , what IC50 is on record?
**Result** 46

**Query** For the compound CCn1c(=O)n(CC)c2c(Oc3ccc(NC(=O)Nc4ccc(Cl)c(C(F)(F)F)c4)cc3)ccnc21 , what IC50 is on record?
**Result** 305

**Query** For the compound Cn1c(=O)[nH]c2c(Oc3ccc(NC(=O)Nc4ccc(Cl)c(C(F)(F)F)c4)cc3)ccnc21 , what IC50 is on record?
**Result** 45

**Query** For the compound O=c1[nH]c2nccc(Oc3ccc(NS(=O)(=O)c4ccccc4)cc3)c2[nH]1 , what IC50 is on record?
**Result** 850

**Query** For the compound Cn1c(=O)[nH]c2nccc(Oc3ccc(NC(=O)Nc4cccc(C(C)(C)C)c4)cc3)c21 , what IC50 is on record?
**Result** 163

**Query** For the compound O=C(Nc1ccc(Oc2ccnc3[nH]c(=O)[nH]c23)cc1)Nc1cc(C(F)(F)F)ccc1F , what IC50 is on record?
**Result** 52

**Query** For the compound O=C(Nc1ccc(Oc2ccnc3[nH]c(=O)[nH]c23)cc1)Nc1cc(F)cc(N2CCOCC2)c1 , what IC50 is on record?
**Result** 600

====

- MEASUREMENT NOTES: Half life in plasma of BRAF mutant expressing WM266.4 cells xenografted Crl:CD1-Foxn1nu mouse at 2 mg/kg, iv
- Format: ADME, organism-based
- Set-up: dose 2 mg/kg, route intravenous
Please respond with reported half-life for every item in the list.
Give the value, in units of h, as a plain number.

**Query** For the compound Cn1c(=O)[nH]c2nccc(Oc3ccc(NC(=O)Nc4ccc(Cl)c(C(F)(F)F)c4)cc3)c21 , what half-life is on record?
**Result** 2.58

**Query** For the compound O=C(Nc1ccc(Oc2ccnc3[nH]c(=O)[nH]c23)cc1)Nc1ccc(Cl)c(C(F)(F)F)c1 , what half-life is on record?
**Result** 0.8

====

Please respond with reported AUC for every item in the list.
- MEASUREMENT NOTES: AUC in plasma of BRAF mutant expressing WM266.4 cells xenografted Crl:CD1-Foxn1nu mouse at 2 mg/kg, iv
- Type: ADME, organism-based
- Design: dose 2 mg/kg, route intravenous

**Query** For the compound O=C(Nc1ccc(Oc2ccnc3[nH]c(=O)[nH]c23)cc1)Nc1ccc(Cl)c(C(F)(F)F)c1 , what AUC is on record?
**Result** 0.718 µM·h

**Query** For the compound Cn1c(=O)[nH]c2nccc(Oc3ccc(NC(=O)Nc4ccc(Cl)c(C(F)(F)F)c4)cc3)c21 , what AUC is on record?
**Result** 3.26 µM·h
